Origin of measurements: patent US20030220376A1

Target: human carbonic anhydrase II (Homo sapiens)
Construct: purchased Sigma C-6165
Assay: Carbonic anhydrase II inhibition assay (p-nitrophenol acetate, absorbance at 405 nm)
Format: biochemical
Conditions: Table 3; mean; read-out: Mean IC50
# note: boundary value 70 nM maps to NO; IC50 below it maps to YES

Prompt: Determine whether this compound shows IC50 lower than 70 nM (ties excluded): NS(=O)(=O)c1ccc(-n2nc(C(F)(F)F)cc2O)cc1 [Compound 48]
Completion: NO

Prompt: Problem: For the compound COC(=O)C1c2ccccc2-c2c1cnn2-c1ccc(S(N)(=O)=O)cc1 (centres unmarked) , is IC50 under 70 nM?
Completion: YES

Prompt: Is the reported IC50 for NC(=O)c1nn(-c2ccc(S(N)(=O)=O)cc2)c2c1CCc1cnc(N)nc1-2 strictly below 70 nM?
Completion: YES

Prompt: Field: below-cutoff. Rule: recorded IC50 strictly less than 70 nM. Subject: NS(=O)(=O)c1ccc(-n2nc(C(F)(F)F)cc2C2CCNCC2)cc1
Completion: NO

###

Molecular target: human carbonic anhydrase II (Homo sapiens, UniProt P00918)
Construct: purchased Sigma C-6165
Assay: Carbonic anhydrase II inhibition assay (p-nitrophenol acetate, absorbance at 405 nm)
Type: biochemical
Conditions: Table 2; overall value of N determinations; read-out: CA Assay IC50 (μM) and concentration of inhibitor added
Observable: IC50

Prompt: # return recorded IC50 for input CS(=O)(=O)c1ccc(C2=C(c3ccccc3)C(=O)OC2)cc1 [VIII, Rofecoxib, reference compound]
Completion: > 100 µM

Prompt: State, in one line, measured IC50 of CS(=O)(=O)c1ccc(-n2nccc2-c2ccc(F)cc2)cc1 [IX, reference compound]
Completion: > 100 µM

Prompt: Give the reported IC50 for this compound. O=C(c1ccc(-n2nc(C(F)(F)F)cc2-c2ccc(F)cc2)cc1)C(F)(F)F [X, reference compound]
Completion: > 100 µM

###

Target: human carbonic anhydrase II (Homo sapiens, UniProt P00918)
Construct: purchased Sigma C-6165
Assay: Carbonic anhydrase II inhibition assay (p-nitrophenol acetate, absorbance at 405 nm)
Assay type: biochemical
Conditions: Table 3; mean; read-out: Mean IC50
Observable: pIC50
Note: pIC50 values are expressed as the negative base-10 logarithm of concentration in M.

Prompt: Tell us which pIC50 value is on record for COCC(=O)Nc1ccc2c(c1)-c1c(c(C(N)=O)nn1-c1ccc(S(N)(=O)=O)cc1)CC2
Completion: 6.36

Prompt: Write down pIC50 measured for item CNC(=O)c1nn(-c2ccc(S(N)(=O)=O)cc2)cc1-c1ccccc1
Completion: 6.41

Prompt: Output measured pIC50 for this item: NS(=O)(=O)c1ccc(-n2ncc3c2-c2ccncc2CC3)cc1
Completion: 6.60

###

For each of the molecules below, state its pIC50.
Molecular target: human carbonic anhydrase II (Homo sapiens, UniProt P00918)
Construct: purchased Sigma C-6165
Test: Carbonic anhydrase II inhibition assay (p-nitrophenol acetate, absorbance at 405 nm)
Assay type: biochemical
Details: Table 3; mean; read-out: Mean IC50
Lab note: report pIC50 as minus log10 of the concentration in molar units, number only.

Prompt: Identify pIC50 associated with the molecule CNC(=O)c1cc(-c2ccc(OC)cc2)n(-c2ccc(S(N)(=O)=O)cc2)n1 [Compound 41]
Completion: 6.48

Prompt: Fill in reported pIC50 for this entry: CNC(=O)c1nn(-c2ccc(S(N)(=O)=O)cc2)c2c1CCc1[nH]ncc1-2 [Compound 19]
Completion: 7.11

Prompt: Provide measured pIC50 value, entry: COc1ccc2c(c1F)C[S+]([O-])c1c(C(F)(F)F)nn(-c3ccc(S(N)(=O)=O)cc3)c1-2 (centres unmarked) [Compound 46]
Completion: 7.22

Prompt: Give the reported pIC50 for this molecule. NC(=O)c1nn(-c2ccc(S(N)(=O)=O)cc2)c2c1CCC=C2 [Compound 30]
Completion: 7.66

Prompt: Look up and state reported pIC50 for CCOC(=O)c1nn(-c2ccc(S(N)(=O)=O)cc2)c2c1CCC=C2 [Compound 15]
Completion: 8.25

Prompt: Provide pIC50 value for the following molecule: CS(=O)(=O)Nc1cccc(-c2cc(C(N)=O)nn2-c2ccc(S(N)(=O)=O)cc2)c1 [Compound 16]
Completion: 7.47

Prompt: Please report pIC50 for the following molecule: COC(=O)c1cc(-c2ccccc2)n(-c2ccc(S(N)(=O)=O)cc2)n1 [Compound 32]
Completion: 6.74

Prompt: Tell me measured pIC50 for NS(=O)(=O)c1ccc(-n2nc(C(=O)O)cc2-c2ccccc2)cc1 [Compound 37] please.
Completion: 6.22

Prompt: Dear colleague, please send me the reported pIC50 for CCOc1cccc2c(C(N)=O)nn(-c3ccc(S(N)(=O)=O)cc3)c12 [Compound 23] when you can.
Completion: 6.69

Prompt: Supply reported pIC50 belonging to this molecule: NC(=O)c1nn(-c2ccc(S(N)(=O)=O)cc2)c2c1C[S+]([O-])c1ccccc1-2 (centres unmarked) [Compound 12]
Completion: 6.33

Prompt: Answer with reported pIC50 of NC(=O)c1nn(-c2ccc(S(N)(=O)=O)cc2)c2c1CCc1cn(CCO)nc1-2 [Compound 21]
Completion: 5.91

Prompt: Supply reported pIC50 belonging to this molecule: COC(C)(C)Cc1cc(C(F)F)nn1-c1ccc(S(N)(=O)=O)cc1 [Compound 36]
Completion: 7.33

Prompt: Write down pIC50 measured for item NS(=O)(=O)c1ccc(-n2nc(C(F)(F)F)cc2O)cc1 [Compound 65]
Completion: 7.09

Prompt: Respond only with pIC50 recorded for NS(=O)(=O)c1ccc(-n2nc(C(F)(F)F)cc2C(=O)C(=O)c2ccccc2)cc1 [Compound 53]
Completion: 7.98

Prompt: Tell me measured pIC50 for CC(C)Oc1cc(C(F)(F)F)nn1-c1ccc(S(N)(=O)=O)cc1 [Compound 50] please.
Completion: 7.77

Prompt: Fill in reported pIC50 for this entry: NS(=O)(=O)c1ccc(-n2nc(C(=O)NCC(=O)O)cc2-c2ccc(Cl)cc2)cc1 [Compound 44]
Completion: 7.10

Prompt: Using the record for CN(C)/C=N/c1cccc(-c2cc(C(N)=O)nn2-c2ccc(S(N)(=O)=O)cc2)c1 [Compound 17] , state its measured pIC50.
Completion: 6.74

Prompt: Look up and report measured pIC50 for this entry: COc1cc(C(F)(F)F)nn1-c1ccc(S(N)(=O)=O)cc1 [Compound 49]
Completion: 8.06

Prompt: Specify pIC50 for NC(=O)c1cc(-c2cccnc2)n(-c2ccc(S(N)(=O)=O)cc2)n1 [Compound 28] and stop.
Completion: 6.28

Prompt: Name the recorded pIC50 of the item COc1ccc(-c2ccnn2-c2ccc(S(N)(=O)=O)cc2)cc1 [Compound 43] in your answer.
Completion: 6.69

Prompt: Provide pIC50 value for the following molecule: C/C=C/c1cc(C(F)F)nn1-c1ccc(S(N)(=O)=O)cc1 [Compound 35]
Completion: 7.74

Prompt: Read the entry NC(=O)c1cc(-c2ccncc2)n(-c2ccc(S(N)(=O)=O)cc2)n1 [Compound 27] and write its reported pIC50.
Completion: 6.38

Prompt: Annotate the molecule NS(=O)(=O)c1ccc(-n2ncc(C(F)(F)F)c2-c2ccccc2)cc1 [Compound 56] with its measured pIC50.
Completion: 6.96
